Cited source for all entries: the supplement of paper PMC5662767

system: Drosophila S2 cl14 SmoIP sensor cells; test: normalized SmoIP GFP fluorescence (untreated unstimulated = 0%, untreated Hh-stimulated = 100%); higher = more Smo activation sensor fluorescence; details: stimulation: mock conditioned medium (-Hh); compound concentration: 2 uM; 24 h;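 note: flow cytometry read-out as median GFP intensity of gated cells, compounds added 30 min before Hh-conditioned or mock medium, mock-treated cells serving as unstimulated baseline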
quantity.name: normalized SmoIP GFP fluorescence

Sample records with normalized SmoIP GFP fluorescence:
Exercise: Name the reported normalized SmoIP GFP fluorescence value associated with the compound COc1ccc([C@@H]2CC(=O)c3c(O)cc(O)cc3O2)cc1O
Solution: -18.9%

Exercise: Name the reported normalized SmoIP GFP fluorescence value associated with the compound CCS(=O)(=O)c1cccc(-c2cc(C(=O)NC3CCN(C)CC3)c(C)c3[nH]c4ncc(C)cc4c23)c1
Solution: -25.2%

Exercise: Name the reported normalized SmoIP GFP fluorescence value associated with the compound O=C(O)c1ccc(N2C(=O)/C(=C\c3ccc(-c4ccc([N+](=O)[O-])cc4)o3)C=C2c2ccccc2)cc1
Solution: -0.265%

Exercise: Name the reported normalized SmoIP GFP fluorescence value associated with the compound COc1cc(Br)c(Nc2nc(-c3c(C)nc4ncccn34)cs2)c(Br)c1
Solution: 5.12%

Exercise: Name the reported normalized SmoIP GFP fluorescence value associated with the compound O=C(O)c1cccc(-c2noc(-c3ccccc3F)n2)c1
Solution: -0.662%

Exercise: Name the reported normalized SmoIP GFP fluorescence value associated with the compound CC(C)c1nc(CN(C)C(=O)N[C@@H](CCN2CCOCC2)C(=O)N[C@H](CC[C@H](Cc2ccccc2)NC(=O)OCc2cncs2)Cc2ccccc2)cs1 [cobicistat-gs-9350]
Solution: 0.474%

Look at each compound and report its normalized SmoIP GFP fluorescence.
1. Cc1ccc(S(=O)(=O)C=CC#N)cc1
2. COC(=O)C1=C(C)NC(C)=C(C(=O)OC(C)C)C1c1cccc2nonc12 (stereo not given)
3. CCCS(=O)(=O)Nc1ccc(F)c(C(=O)c2c[nH]c3ncc(-c4ccc(Cl)cc4)cc23)c1F
4. O=C(Nc1cccc(C(F)(F)F)c1)Nc1cc(S(=O)(=O)NC2CC2)ccc1-c1ccsc1

Solution:
1: 2.86%; 2: 3.72%; 3: 3.72%; 4: -3.05%
